STUDY TARGET: FGFR3 (Homo sapiens)
Construct: purchased Millipore UK Ltd., Dundee, UK (now Eurofins Scientific); KinaseProfiler / IC50 Profiler service
Sequence (P22607 23-806): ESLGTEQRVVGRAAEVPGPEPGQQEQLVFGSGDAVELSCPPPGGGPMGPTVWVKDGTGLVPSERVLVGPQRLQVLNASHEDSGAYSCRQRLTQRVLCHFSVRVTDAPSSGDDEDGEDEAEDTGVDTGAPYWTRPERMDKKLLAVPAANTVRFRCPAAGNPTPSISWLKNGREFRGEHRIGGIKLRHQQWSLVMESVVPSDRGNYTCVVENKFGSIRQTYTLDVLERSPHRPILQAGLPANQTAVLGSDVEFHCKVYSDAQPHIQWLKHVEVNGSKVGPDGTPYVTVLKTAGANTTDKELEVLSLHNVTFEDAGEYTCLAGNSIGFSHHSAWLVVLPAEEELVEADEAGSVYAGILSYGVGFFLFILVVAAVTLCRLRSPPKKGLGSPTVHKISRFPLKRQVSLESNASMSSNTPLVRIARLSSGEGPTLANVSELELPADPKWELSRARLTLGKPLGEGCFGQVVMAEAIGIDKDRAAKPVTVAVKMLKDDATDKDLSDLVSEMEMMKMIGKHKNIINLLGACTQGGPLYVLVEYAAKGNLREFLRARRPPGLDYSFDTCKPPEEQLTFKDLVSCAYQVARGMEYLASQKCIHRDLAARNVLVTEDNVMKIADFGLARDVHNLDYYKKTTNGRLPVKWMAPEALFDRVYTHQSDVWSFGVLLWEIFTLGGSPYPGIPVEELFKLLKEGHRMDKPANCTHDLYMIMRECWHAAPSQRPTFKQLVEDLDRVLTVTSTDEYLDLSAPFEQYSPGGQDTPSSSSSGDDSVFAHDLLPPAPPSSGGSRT
ASSAY NAME: In vitro kinase assay, FGFR3
Format: biochemical
TEST CONDITIONS: 1 μM, mean ± S.D.; read-out: % inhibition at 1 μM, FGFR3 (h)
READOUT NAME: inhibition at 1 µM (%)
State the answer as a number, implicitly in %.

Q: Item Cc1ccc(Nc2nccc(Oc3ccc4[nH]ccc4c3)n2)cc1S(N)(=O)=O [MKP122] : provide inhibition at 1 µM
A: 65

Q: Item Cc1ccc(Nc2nccc(N(C)c3ccc4[nH]ccc4c3)n2)cc1S(N)(=O)=O [MKP101] : provide inhibition at 1 µM
A: 96

Q: Item Cc1ccc(Nc2cc(Oc3ccc4[nH]ccc4c3)ncn2)cc1S(N)(=O)=O [MKP123] : provide inhibition at 1 µM
A: 21

Q: Item COc1ccc(Nc2cc(Oc3ccc4[nH]ccc4c3)ncn2)cc1N1CCOCC1 [MKP121] : provide inhibition at 1 µM
A: 13

Origin of the recorded values: paper PMC4581874
